- Substrate: O=C(O)C(=O)Cc1ccccc1
- ASSAY_TEXT: purified protein
- Type: biochemical, Halalkalibacterium halodurans
- TEST_CONTEXT: reductive amination, 500 mM ammonia, 100 microM NADH, glycine-KCl-KOH pH 10.4, 25°C
ASSAY_READOUT: Km (µM)
Field format: number, assumed µM, no unit text.

Check out these entries, answers already filled in.
[[record]]
protein = "PheDH (Halalkalibacterium halodurans C-125; N276L) (protein) MLTKTPTVTSTLDIFTEMAEHEQVLFCHDPSSGLRAIIAIHDTTLGPALGGCRMYPYQTTEDALRDVLRLSKGMTQKCAAADVDFGGGKAVIIGDPAKDKSANLFRAFGQFVESLNGRFYTGTDMGTTMEDFVHALKETNGIVGIPKEYGGSGDSSVPTAKGVINSLKAISQVVLKDKQFSGRTYAIQGLGKVGFKVAEELLKEGNDLYVSDLQESLPLRLQQLGQRLGRHVEILHGDEIYEAAADVFVPCAQGAILNDATIARLKVKAIAGAANLQLEAERHGQMLHDQGIWFAPDYIVNSGGLIQVADELYGSNEKRVLSKTNAIYDTILEIFHQAERHHITTLQAANQLCERRIRERARRNNFFVNRIRPKWNLRK"
assay_readout = "Km"
experimental_result = 1050

[[record]]
protein = "PheDH (Halalkalibacterium halodurans C-125; E113D) (protein) MLTKTPTVTSTLDIFTEMAEHEQVLFCHDPSSGLRAIIAIHDTTLGPALGGCRMYPYQTTEDALRDVLRLSKGMTQKCAAADVDFGGGKAVIIGDPAKDKSANLFRAFGQFVDSLNGRFYTGTDMGTTMEDFVHALKETNGIVGIPKEYGGSGDSSVPTAKGVINSLKAISQVVLKDKQFSGRTYAIQGLGKVGFKVAEELLKEGNDLYVSDLQESLPLRLQQLGQRLGRHVEILHGDEIYEAAADVFVPCAQGAILNDATIARLKVKAIAGAANNQLEAERHGQMLHDQGIWFAPDYIVNSGGLIQVADELYGSNEKRVLSKTNAIYDTILEIFHQAERHHITTLQAANQLCERRIRERARRNNFFVNRIRPKWNLRK"
assay_readout = "Km"
experimental_result = 7607


API: the following record is the query input.
Km measured on PheDH (Halalkalibacterium halodurans C-125) (protein) MLTKTPTVTSTLDIFTEMAEHEQVLFCHDPSSGLRAIIAIHDTTLGPALGGCRMYPYQTTEDALRDVLRLSKGMTQKCAAADVDFGGGKAVIIGDPAKDKSANLFRAFGQFVESLNGRFYTGTDMGTTMEDFVHALKETNGIVGIPKEYGGSGDSSVPTAKGVINSLKAISQVVLKDKQFSGRTYAIQGLGKVGFKVAEELLKEGNDLYVSDLQESLPLRLQQLGQRLGRHVEILHGDEIYEAAADVFVPCAQGAILNDATIARLKVKAIAGAANNQLEAERHGQMLHDQGIWFAPDYIVNSGGLIQVADELYGSNEKRVLSKTNAIYDTILEIFHQAERHHITTLQAANQLCERRIRERARRNNFFVNRIRPKWNLRK = 337

Data origin: paper PMC9728165
